System: SU-DHL-6
Assay: Anti-proliferation assay (CellTiter-Glo), SU-DHL-6
Format: cell-based, human
Details: SU-DHL-6, 96 hour treatment
Description: Commercially available 6 B cell lymphoma cancer cell lines DOHH-2 (DSMZ, #ACC 47), NALM-6 (DSMZ, #ACC 58), Ramos (ECACC, #85030802), SU-DHL-6 (ATCC, #CRL-2959), WSU-DLCL2 (DSMZ, #ACC 575) and WSU-NHL (DSMZ, #ACC 58) were used. SG2057 was used as the drug, free toxin. […] After 96 hours, the number of living cells was quantified using CellTiter-Glo Luminescent cell viability assay (Promega-G7573). […] The IC50 for each experiment and treatment was calculated (See table below).
Measured Endpoint: IC50 (nM)
Give just the numeric value; nM need not be written.

Entry C=C1C[C@H]2C=Nc3cc(OCCCCCOc4cc5c(cc4OC)C(=O)N4CC(=C)C[C@H]4C=N5)c(OC)cc3C(=O)N2C1 [Free dPBD (SG2057), SG2057] ; IC50 = 0.05
